From: patent US20260116991A1

biological target: T1, GPC3 endogenously expressed on HepG2 cells (UniProt P51654 25-554); assay: FACS on HepG2 cells;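 further: flow cytometric binding of chimeric antibodies to cells, read as mean fluorescence intensity, EC50 obtained by curve fitting of the MFI data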
T1 construct: whole, on cells
# EC50 per entry
Answer in nM, number only, no unit symbol.

Consider the reported EC50 for these binders:
- binder: "F1.42.8 human-murine chimeric antibody (antibody, human IgG1, kappa, V domains shown) VH: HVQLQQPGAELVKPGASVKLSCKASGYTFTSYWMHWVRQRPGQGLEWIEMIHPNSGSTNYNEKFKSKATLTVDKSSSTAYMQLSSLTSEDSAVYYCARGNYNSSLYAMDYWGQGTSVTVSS VL: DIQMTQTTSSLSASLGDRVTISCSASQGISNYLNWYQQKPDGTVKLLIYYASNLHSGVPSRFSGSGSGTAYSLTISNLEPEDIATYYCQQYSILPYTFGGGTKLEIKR"
  measuredResult: 0.21
- binder: "F1.62.9 human-murine chimeric antibody (antibody, human IgG1, kappa, V domains shown) VH: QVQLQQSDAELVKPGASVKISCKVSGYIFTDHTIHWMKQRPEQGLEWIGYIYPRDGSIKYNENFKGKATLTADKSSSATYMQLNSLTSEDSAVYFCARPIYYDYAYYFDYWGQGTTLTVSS VL: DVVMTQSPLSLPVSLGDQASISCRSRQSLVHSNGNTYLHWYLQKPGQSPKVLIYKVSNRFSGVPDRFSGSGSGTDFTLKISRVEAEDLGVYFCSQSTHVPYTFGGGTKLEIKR"
  measuredResult: 1.32

Consider the record given below.
Query string: Identify measured EC50 associated with F3.81.19 human-murine chimeric antibody (antibody, human IgG1, kappa, V domains shown) VH: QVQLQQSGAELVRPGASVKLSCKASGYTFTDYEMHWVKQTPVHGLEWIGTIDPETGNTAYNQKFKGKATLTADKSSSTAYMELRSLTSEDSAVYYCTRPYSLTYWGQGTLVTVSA VL: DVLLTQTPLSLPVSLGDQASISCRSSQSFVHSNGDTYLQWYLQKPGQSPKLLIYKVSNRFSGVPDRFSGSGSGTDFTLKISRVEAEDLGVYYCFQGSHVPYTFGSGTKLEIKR
Result string: 2.72
